B1: Ribonuclease HI, P0A7Y4 (parent)
chain: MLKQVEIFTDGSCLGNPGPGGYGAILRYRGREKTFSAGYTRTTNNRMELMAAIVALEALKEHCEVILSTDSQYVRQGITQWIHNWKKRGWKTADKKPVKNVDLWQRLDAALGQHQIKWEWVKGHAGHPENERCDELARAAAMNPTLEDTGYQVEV

Variants of: B1
Conditions: Escherichia coli (strain K12); pH 5.5; Thermal; CD; Potassium phosphate 2 mM; KF 5 mM; reversible: yes; structure 2RN2; whole UniProt chain shown
Measured parameter: change of melting temperature, mutant - wild type (higher = more stable) (°C)

Mutant designation	Unit tag	Observed measurement
R27A	°C	-5.6
I53A	°C	-12.1
Q105G	°C	-9.6
D10A	°C	14.8
